Measured Growth Rate, listed per entry for reference.
test system: U2OS; assay: Incucyte cell viability with U2OS; type: toxicity, cell-based; conditions: human, 18 h, 10 µM, compound concentration 10 uM, replicate number 1; note: unitless GR value; below 1 slowed growth and below 0 cell loss
Could you respond with only the numeric value?

Some molecules with recorded Growth Rate:
| molecule | assayed-system | Growth Rate |
| --- | --- | --- |
| Cc1c(N2CCCC2)nc2ccc(Br)cc2c1C(=O)NC[C@H](CCC(=O)O)c1ccccc1Cl.Cl.O | U2OS | 0.93 |
| CCC(=O)Nc1cc(Nc2cc(NC3CC3)n3ncc(C#N)c3n2)ccc1C | U2OS | 0.39 |
| Cc1ccc2c(N)c(C(=O)NC3CCc4cc(N5CC6CCC(C5)N6)ccc4C3)sc2n1.O=CO (stereo unspecified) | U2OS | 0.35 |
| Oc1c(CN2CCCC2)cc(COCc2ccccc2)c2cccnc12 | U2OS | 0.93 |
| O=c1ccc2c(OCCCCOc3ccccc3)c3ccoc3cc2o1 | U2OS | 0.99 |
| COc1cc2nc(C)nc(NC3(c4ccccc4)CC3)c2cc1OC | U2OS | 0.94 |
| O=C1CCCN1CCNc1nc(Nc2ccc(Cl)c(Cl)c2)ncc1C(F)(F)F | U2OS | 0.25 |
| C=CC(=O)Nc1cc(Nc2nccc(-n3cc(CN(C)C)c(-c4ccccc4)n3)n2)c(OC)cc1N1CCOCC1 | U2OS | 0.4 |

[in] U2OS / Growth Rate / Cc1sc(C(=O)c2cncnc2N[C@@H]2C[C@H](COS(N)(=O)=O)[C@@H](O)C2)cc1[C@@H]1NCCc2ccc(Cl)cc21 : value?
[out] 0.96

[in] Give Growth Rate (U2OS) of the following molecule: CCOC(=O)c1cncn1[C@H](C)c1ccccc1 [ETOMIDATE]
[out] 0.9

[in] Item O=C(Cc1ccccc1)Nc1nnc(N2CC[C@@H]3[C@H]2CN3c2cccnn2)s1 with U2OS - Growth Rate?
[out] 0.77

====

system: Fibroblast; experiment: Incucyte cell viability with human fibroblast; assay type: toxicity, cell-based; conditions: 12 h, 10 µM, compound concentration 10 uM, replicate number 1; note: unitless GR value; below 1 slowed growth and below 0 cell loss
# Growth Rate values compiled below
Field format: numeric only.

Consider the following illustrative entries.
| compound | Growth Rate |
| --- | --- |
| CN1C(=O)Cc2ccc(-c3ccc(C[C@@H](C#N)NC(=O)[C@H]4N[C@@H]5CC[C@H]4C5)c(F)c3)cc21 | 0.65 |
| C=C[C@@]12CCc3cc(O)ccc3[C@H]1CC[C@@]1(C)[C@H]2CC[C@@H]1O | 0.86 |
| CC(C)(C)c1cc(NC(=O)c2csc(Nc3ccccn3)n2)no1 | 0.84 |

[in] Checklist item: Growth Rate tested on Fibroblast, entry Cc1cnc(Nc2ccc(C(=O)N3CCN(C)CC3)cc2)nc1N[C@@H]1CCC[C@@H]1C(N)=O , value?
[out] 0.62

[in] Observed Growth Rate on Fibroblast for c1ccc2nc(N3CCNCC3)ccc2c1 [QUIPAZINE] , please.
[out] -0.91

[in] Please tell me: Growth Rate of CCOC(=O)CS(=O)(=O)c1ccc([C@@H](CO)NC(=O)c2cc3c(Cl)c(Cl)c(C)cc3n2C)cc1 , system Fibroblast?
[out] -0.98

[in] Provide the documented Growth Rate with Fibroblast as the system for Cc1cc(OC2CCS(=O)(=O)CC2)cc(C)c1-c1cccc(COc2ccc(CCC(=O)O)c(F)c2)c1
[out] 0.64

====

tested on: HEK-293T; assay: Incucyte cell viability with HEK293T; type: toxicity, cell-based; settings: human, 6 h, 10 µM, compound concentration 10 uM, replicate number 1; note: unitless GR value; below 1 slowed growth and below 0 cell loss
Some compounds, each annotated with its measured Growth Rate.
# output: bare number, no unit

Worked cases, Growth Rate given:
| compound | Growth Rate |
| --- | --- |
| CC1CN(CC(=O)N2CC(C)(C)c3nc(CO)c(Cc4ccc(F)cc4)cc32)C(CN2CCOCC2C)CN1 (centres undefined) | 0.63 |
| COC[C@H](O)Cn1c(=O)cnn(-c2ccc(Cl)c(C(=O)NCC3(O)CCCCCC3)c2)c1=O [CE-224535] | 0.55 |
| c1cnc2cc3c(cc2n1)[C@@H]1CNC[C@H]3C1 [VARENICLINE] | 0.65 |

Next compound, please.
[in] Data request, read-out Growth Rate, for CCn1c(-c2ccncc2)cc2c1CCNC2=O
[out] 0.22

====

test system: Fibroblast; assay: Incucyte cell viability with human fibroblast; type: toxicity, cell-based; conditions: 6 h, 10 µM, compound concentration 10 uM, replicate number 2; note: unitless GR value; below 1 slowed growth and below 0 cell loss
Catalogue of Growth Rate values
Please state the value as a number alone, without comment.

Please review the following examples before continuing.
| compound | assayed-system | value |
| --- | --- | --- |
| CCO[C@@H](Cc1ccc(OCCc2ccc(OS(C)(=O)=O)cc2)cc1)C(=O)O | Fibroblast | 0.72 |
| Cc1nn(-c2ccccc2)c(Nc2ccccc2C(=O)O)c1-c1cc2nccnc2c(F)c1F | Fibroblast | -0.17 |
| Cc1c(CCC(=O)O)cccc1NC(=O)[C@@H](c1ccc(-c2cncc(Cl)c2)c(F)c1)C1CCCC1 | Fibroblast | -0.66 |

[in] Reported Growth Rate, compound Cc1cn([C@H](C)CC#N)c(=O)c2cc(Cn3nc(C(F)F)cc3Cl)nn12 : ____
[out] 0.78

[in] Name the recorded Growth Rate for CC(=O)O.NCCCc1c(C(=O)O)[nH]c2ccc(C(=O)Nc3ccccc3)cc12 .
[out] 0.33

[in] Quick one: Growth Rate for Cc1cc(Nc2ncc(Cl)c(Nc3ccccc3S(=O)(=O)C(C)C)n2)c(OC(C)C)cc1C1CCNCC1 ?
[out] -1

[in] What does the record list as Growth Rate for Cl.N/C(=N\C(=O)c1nc(Cl)c(N)nc1N)NCc1ccccc1 [BENZAMIL HYDROCHLORIDE] ?
[out] -0.19

[in] Which Growth Rate is listed for CC(C)(C)S(=O)(=O)c1ccc2nccc(Nc3n[nH]c4ccc(F)cc34)c2c1 ?
[out] 0.54

[in] Quick check: Growth Rate of Cl.O=S(=O)(c1cccc2c(I)cccc12)N1CCCNCC1 ?
[out] -0.05

[in] Bench note: what Growth Rate did COc1cc(C)c(S(=O)(=O)N(C)CCOCC(=O)N(C)[C@H]2CCC[C@@H](N3CCN(C)CC3)C2)c(C)c1.O=C(O)C(O)C(O)C(=O)O show?
[out] -0.57

[in] # get_value(readout='Growth Rate', item= Fc1cccc(-n2cnc3c(NCc4nc5ccc(F)c(F)c5[nH]4)nc(N4CCOCC4)nc32)c1 )
[out] -0.22

[in] If you can, please state the reported Growth Rate value of Cl.Clc1cc2cc(c1)-c1cnn3ccc(nc13)NCCOCCO2 .
[out] -0.68

[in] Which Growth Rate value belongs to OC(c1ccc(-c2ccc(CN3CCN(Cc4ccncc4)CC3)cc2)c(F)c1)(C(F)(F)F)C(F)(F)F ?
[out] -0.55

[in] Reported Growth Rate, compound CN[C@@H](C)C/C=C/c1cncc(OC(C)C)c1 : ____
[out] 0.53

[in] Could you share which Growth Rate value was measured for C[C@@H]1C[C@H](N)C[C@H](c2ccncc2NC(=O)c2ccc(F)c(-c3c(F)cccc3F)n2)C1 ?
[out] 0.93

[in] Value lookup for Growth Rate; key = Cc1cc(C)cc(C(=O)NOCCCCCC(=O)NO)c1
[out] -0.16

[in] # get_value(readout='Growth Rate', item= O=C(O)CCC/C=C\C[C@@H]1[C@@H](/C=C/[C@@H](O)COc2cccc(C(F)(F)F)c2)[C@H](O)C[C@@H]1O )
[out] -0.58

====

tested on: U2OS; experiment: Incucyte cell viability with U2OS; assay type: toxicity, cell-based; conditions: human, 12 h, 10 µM, compound concentration 10 uM, replicate number 1; note: unitless GR value; below 1 slowed growth and below 0 cell loss
measurement-label: Growth Rate

// solved cases for Growth Rate follow
| smi | measurement-label | value |
| --- | --- | --- |
| CN1CCN(c2nc(N)c3ccccc3n2)CC1 | Growth Rate | 0.81 |
| C[C@@H](C(N)=O)[C@H](N)c1nc2cc(C(C)(C)C)ccc2[nH]1 | Growth Rate | 0.69 |
| O=C(N[C@H]1CN2CCC1CC2)c1ccc(Cl)cc1 | Growth Rate | 0.84 |
| Cn1cc(-c2ccc(-c3cncc(Cl)c3N3CCC4(CCNC4=O)CC3)cc2)cn1 | Growth Rate | 0.59 |
| c1ccc2c(c1)SCc1c-2[nH]c2ccccc12 | Growth Rate | -0.65 |

[in] Quick one: Growth Rate for CCN1CCN(Cc2ccc(NC(=O)c3ccc(C)c(NC(=O)c4cncc(-c5cccs5)c4)c3)cc2C(F)(F)F)CC1 ?
[out] -0.52

[in] What value of Growth Rate has been reported for the following compound? Nc1ncnc2c1c(I)cn2[C@@H]1O[C@H](CO)[C@@H](O)[C@H]1O
[out] 0.15

[in] What value of Growth Rate has been reported for the following compound? O=C(Nc1ccnc(NC(=O)C2CC2)c1)c1c(Cl)cccc1Cl
[out] -0.05

[in] For the compound CN(C)CCC[C@@]1(c2ccc(F)cc2)OCc2cc(C#N)ccc21 , what Growth Rate is on record?
[out] 1

[in] Give the measured Growth Rate of Cc1nnc2ccc(-c3cccc(C(F)(F)F)c3)nn12 .
[out] 0.88

[in] Which measured Growth Rate value corresponds to CCOC(=O)CS(=O)(=O)c1ccc([C@@H](CO)NC(=O)c2cc3c(Cl)c(Cl)c(C)cc3n2C)cc1 ?
[out] -0.25

[in] Form field: reported Growth Rate of COc1cc(-c2cc3ncccc3c(O[C@H](C)[C@H]3CNC(=O)C3)n2)cc(OC)c1OC.Cl
[out] 0.79

[in] I'd like to know its Growth Rate. The compound in question is CCn1c(CNC(=O)c2nc(Cl)cnc2N)[n+](CC)c2ccc(C(=O)N(C)CCN(C)C)cc21.[Cl-]
[out] 0.84

[in] Consider the compound shown here: C=C[C@@]12CCc3cc(O)ccc3[C@H]1CC[C@@]1(C)[C@H]2CC[C@@H]1O What is its recorded Growth Rate?
[out] 0.99

[in] GET /values?readout=Growth Rate&item= CC(C)(C)c1ccc(NC(=O)N2CCN(c3ncccc3Cl)CC2)cc1
[out] 0.89

[in] Fill in: Growth Rate of Cc1nc2ccccc2c(-c2ccc3c4c(ccnc24)CCO3)c1[C@H](OC(C)(C)C)C(=O)O is ___
[out] 0.77

The reported numbers originate from ChEMBL document CHEMBL5303304.
